test system: Aspergillus fumigatus; experiment: Compound was tested in vitro for antifungal activity against Aspergillus fumigatus (CF1003); assay type: functional
Flag rule - IC80 less than 3 µg/mL flags true (1); the remaining entries get false (0).

molecule: CO/N=C1/[C@@H](Cn2cncn2)[C@H](COc2ccc(OC(C)(C)C)cc2)CC[C@@]1(C)CCSc1ncccn1
experimentalTarget: Aspergillus fumigatus
groupLabel: true (1)
--
molecule: CSCC[C@]1(C)CC[C@@H](COc2ccc(OC(C)(C)C)cc2)[C@H](Cn2cncn2)/C1=N/O
experimentalTarget: Aspergillus fumigatus
groupLabel: true (1)
--
molecule: COC1[C@@H](Cn2cncn2)[C@H](COc2ccc(OC(C)(C)C)cc2)CC[C@@]1(C)CCN1CCOCC1 (some centres undefined)
experimentalTarget: Aspergillus fumigatus
groupLabel: false (0)
--
molecule: CO[C@@H]1[C@@H](Cn2cncn2)[C@H](COc2ccc(OC(C)(C)C)cc2)CC[C@@]1(C)CCSc1nccn1C
experimentalTarget: Aspergillus fumigatus
groupLabel: false (0)
--
molecule: COC1[C@@H](Cn2cncn2)[C@H](COc2ccc(OC(C)(C)C)cc2)CC[C@@]1(C)CCS(C)(=O)=O (some centres undefined)
experimentalTarget: Aspergillus fumigatus
groupLabel: false (0)
--
molecule: COC1[C@@H](Cn2cncn2)[C@H](COc2ccc(OC(C)(C)C)cc2)CC[C@@]1(C)CCn1ccnc1 (some centres undefined)
experimentalTarget: Aspergillus fumigatus
groupLabel: false (0)
--
molecule: OC(Cn1cncn1)(Cn1cncn1)c1ccc(F)cc1F
experimentalTarget: Aspergillus fumigatus
groupLabel: false (0)
--
molecule: CO/N=C1/[C@@H](Cn2cncn2)[C@H](COc2ccc(OC(C)(C)C)cc2)CC[C@@]1(C)CCn1ccnc1
experimentalTarget: Aspergillus fumigatus
groupLabel: false (0)
--
molecule: COCC[C@]1(C)CC[C@@H](COc2ccc(OC(C)(C)C)cc2)[C@H](Cn2cncn2)/C1=N/OC
experimentalTarget: Aspergillus fumigatus
groupLabel: true (1)
